Source listed as PubChem BioAssay (NCI).

System: NCI-H522 lung
test-method-notes: NCI-60 one-dose screen, 48 h (100 = growth as untreated, 0 = no growth, -100 = all killed)
recorded-conditions: 10 µM
This is part of a sample that, as a whole, favours compounds with a hit. Of some 83,000 tested, about 20% had one in any assay.
Lab note: compare growth with 70%, writing yes (1) if less and no (0) if equal or more.

Exercise: Here's an entry: `COc1ccc(C(=O)COc2cccc(/C=C3\Cc4ccccc4C3=O)c2)cc1` . Is its growth below 70%?
Solution: yes (1)

Exercise: Problem: For the compound `CC(C)N(CCOc1ccc(-c2nc3sccn3c2-c2ccnc(S(C)(=O)=O)n2)cc1)C(C)C` , is growth under 70%?
Solution: yes (1)

Exercise: Consider the compound `O=C(CCl)Oc1ccc(OC(=O)CCl)cc1` . Is its growth strictly less than 70%?
Solution: yes (1)

Exercise: Consider the compound `COc1cc(C(=O)n2nc(-c3cc(OC)c(OC)c(OC)c3)nc2N)cc(OC)c1OC` . Is its growth strictly less than 70%?
Solution: no (0)

Exercise: Hi there! Is growth for `CCN(CC)CCOc1cccc2c1C(=O)c1cccc(OCCN(CC)CC)c1C2=O` below 70%, do you know?
Solution: yes (1)

Exercise: Identify whether the compound `O=C(Nc1cccc2c1CCCC2)c1cc2ccccc2cc1O` records growth below 70%.
Solution: yes (1)

Exercise: Lab note: growth threshold 70%. Does this compound come in strictly under it? NC(CSC(c1ccccc1)(c1ccccc1)c1cccc2ccccc12)C(=O)O (stereo not given)
Solution: no (0)

Exercise: Report whether reported growth is lower than 70% (strictly) for `N=C1S/C(=C/c2ccc(-c3ccc4c(c3)C(=O)NC4=O)o2)C(=O)N1c1ccc(Br)cc1`
Solution: yes (1)

Exercise: I'd appreciate it if you could check whether `COc1cccc(CNc2cccc3cn[nH]c23)c1O` has growth smaller than 70%.
Solution: no (0)

Exercise: Here's an entry: `COc1cc(-c2nn(-c3cccc(NC(=O)CCN4CCN(Cc5ccccc5)CC4)c3)cc2-c2ccncc2)ccc1Cl` . Is its growth below 70%?
Solution: yes (1)

Exercise: Threshold test, growth < 70%: `CN1CCc2c(sc3nc4n(-c5ccc(Cl)cc5)c(=O)[nH]n4c(=O)c23)C1`
Solution: no (0)

Exercise: State whether 70% exceeds growth recorded for `Cc1c[nH]c(=O)n(Cc2nnc(CCC(=O)c3nc4ccccc4[nH]3)o2)c1=O` .
Solution: yes (1)

Exercise: Given the entry `CN1CCc2c(sc3nc4n(-c5ccc(Cl)cc5)cnn4c(=O)c23)C1` , would its reported growth be below 70%?
Solution: no (0)

Exercise: Record `c1cncc(-c2csc(-c3c[nH]c4ccccc34)n2)c1` : is its growth strictly below 70%?
Solution: no (0)

Exercise: Record `Fc1ccc2[nH]cc(-c3nc(-c4ccsc4)cs3)c2c1` : is its growth strictly below 70%?
Solution: no (0)

Exercise: A record lists `COc1ccc(-c2nn(-c3cccc(Cl)c3)cc2-c2nc(N)[nH]c(=O)c2C#N)cc1` . Is its growth below 70%?
Solution: yes (1)

Exercise: Dear colleague, could you confirm whether growth of `S=C(NCc1ccccc1)NCc1ccccc1` falls below 70%? Thanks.
Solution: no (0)

Exercise: Dear colleague, could you confirm whether growth of `CCn1cc(CNc2ccc(C(=O)Nc3ccc4ccccc4c3)cc2)c(C)n1` falls below 70%? Thanks.
Solution: no (0)

Exercise: growth under 70%? Item: `C=C/C(C)=C/C[C@]1(C)[C@H](C)[C@@H](OC(=O)CCC)[C@H](O)[C@@]23C(=C[C@H](OC)C[C@@H]12)[C@@H](OC(=O)CCC)O[C@H]3OC(C)=O`
Solution: yes (1)

###

Test system: HOP-92 NSCLC
test-method-notes: NCI-60 one-dose screen, 48 h
recorded-conditions: 10 µM
This is part of a sample that, as a whole, favours compounds with a hit. Of some 83,000 tested, about 20% had one in any assay. Active and inactive are the calls of the source. The calls were made as follows: active = growth percent below 10; inactive = the rest.
I would appreciate it if you answered using one of these outcomes: Y (active), N (inactive)

Exercise: Could you check what this test reported for `COc1cc(-c2csc(NC(=O)Nc3cc(C(F)(F)F)cc(C(F)(F)F)c3)n2)cc(OC)c1OC` ?
Solution: Y

Exercise: Record lookup: outcome of this test for `Oc1ccc(-c2[nH]c3ccccc3c2-c2nc3ccccc3o2)cc1` ?
Solution: N

Exercise: Returns: the outcome recorded for `S=c1cnc2ccccc2[nH]1` in this assay.
Solution: N

Exercise: Test call, this compound: `O=C(Nc1ccc(OCc2nnc(-c3ccc(Cl)cc3)o2)c(F)c1)Nc1ccc(Cl)c(C(F)(F)F)c1`
Solution: Y

Exercise: Each compound tested received a call. Report the one for CC(=O)OC1CC2C(C)(C)CCC[C@]2(C)C2=C1C(O)=C(C(C)C)C(=O)C2=O (stereo not given in full) .
Solution: Y

###

Test system: LOX IMVI melanoma
test-method-notes: NCI-60 one-dose screen, 48 h (100 = growth as untreated, 0 = no growth, -100 = all killed)
recorded-conditions: 10 µM
Compounds without any hit were thinned out: in the full panel of roughly 83,000, 20% have a hit. The source made the active and inactive calls. How the source made its calls: active means growth percent below 10; inactive means the rest.
Kindly supply the reported growth values for the records listed here.

Exercise: // Input: `Cc1cc(Cl)ccc1Nc1nc(C(F)(F)F)ccc1C(=O)N/N=C/c1c(Cl)cccc1Cl` . Output its growth only.
Solution: 10% (inactive)

Exercise: Give the measured growth for `Cc1c2cnccc2c(C)c2c1c1cc(O)ccc1n2C(C)C`
Solution: -17.2% (active)

Exercise: Answer with the recorded growth of `COc1ccc(-c2n[nH]nc2-c2cc(OC)c(OC)c(OC)c2)cc1` only.
Solution: 9.46% (active)

Exercise: Return reported growth. Input compound: `CCn1c2ccc(O)cc2c2c(C)c3c[n+](C)ccc3c(C)c21`
Solution: 62.2% (inactive)

Exercise: Report measured growth; entry is Nc1ncnc2c1ncn2C1(CO)OCC(O)C(O)C1O (stereo unspecified)
Solution: 94.4% (inactive)

Exercise: Name the recorded growth of the compound listed here: `COC(=O)c1cc2oc(/C=C3/SC(=S)N(N)C3=O)cc2n1Cc1ccccc1`
Solution: 34.6% (inactive)

###

Tested on: CAKI-1 renal
test-method-notes: NCI-60 one-dose screen, 48 h
recorded-conditions: 10 µM
Compounds without any hit were thinned out: in the full panel of roughly 83,000, 20% have a hit. The source made the active and inactive calls. How the source made its calls: active means growth percent below 10; inactive means the rest.
Just give me one of these, please: true (1) = active, false (0) = inactive

Exercise: Which result was noted for this molecule in the test: `COc1cc2cc(Oc3ccc(NC(=O)c4cc(C(F)(F)F)cc(C(F)(F)F)c4)cc3)c(C)nc2cc1OC`
Solution: false (0)

Exercise: Fill in: this test's call for `COc1ccc2nc(Cl)c(Cn3nnc(Cc4ccccc4)n3)cc2c1` is ___
Solution: false (0)

Exercise: Status in this test for OC(CNc1ccnc2cc(Cl)ccc12)CNC1CCCCC1 (stereo not given) ?
Solution: false (0)

Exercise: Identify the outcome logged in this assay for the molecule shown: `CN1CCc2c(sc3nc4n(-c5ccc(Cl)cc5)c(=O)[nH]n4c(=O)c23)C1`
Solution: false (0)

Exercise: Assay result, entry `COc1ccc(-c2nn(-c3cccc(Cl)c3)cc2-c2c(C#N)c(=O)n3[nH]c(-c4ccc(C)cc4)nc3c2C#N)cc1` — outcome?
Solution: false (0)

Exercise: Which outcome was entered for the molecule Nc1ccccc1NC(=O)c1ccc(CCCC(=O)Nc2ccc(C3CC3N)cc2)cc1 (stereo not given) in this test?
Solution: false (0)

Exercise: Hey, what did the test say about `c1ccc(/C(=N\Nc2ccc3ccccc3n2)c2ccccn2)cc1` ?
Solution: true (1)

Exercise: Per the assay record, what outcome was assigned to `CCOC(=O)Cn1c(=O)c2sc3ncccc3c2n2nnc(-c3ccccc3)c12` ?
Solution: false (0)

Exercise: Which outcome was entered for the molecule `COc1ccc(/C(C#N)=C/c2ccccc2OC)cc1` in this test?
Solution: false (0)

Exercise: Please let me know the test result on file for `CC(=O)/C(=C/c1ccc(Br)cc1)C(=O)c1ccccc1` .
Solution: false (0)

Exercise: I'd appreciate the recorded outcome for `Fc1ccc(C(c2ccc(F)cc2)C(Cl)Cl)cc1` from this test.
Solution: false (0)

Exercise: Which outcome was entered for the molecule `COc1ccc(C(=O)CC(CC(=O)c2ccc(OC)cc2)c2c(C)nn(-c3ccccc3)c2Cl)cc1` in this test?
Solution: false (0)

Exercise: Check the results log: what was the call for `COc1ccc([C@H]2[C@H](C(=O)Nc3cccnc3)c3ccccc3C(=O)N2c2ccccc2)cc1` ?
Solution: false (0)

Exercise: Hey, what did the test say about `O=C(Nc1cc([N+](=O)[O-])c2[nH]c(=O)c3ccccc3c2c1)C(F)(F)F` ?
Solution: false (0)

Exercise: Each molecule tested received a call. Report the one for `CC(C)(C)c1ccc(S(=O)(=O)N[C@H]2CC[C@H]3[C@@H]4CCc5cc(O)ccc5[C@H]4CC[C@]23C)cc1` .
Solution: false (0)

Exercise: Hey, what did the test say about `CN(C)c1ccc(/C=N/NC(=O)c2cccc3ccccc23)c(Cl)c1` ?
Solution: false (0)

Exercise: Answer briefly: the call reported for `O=C(CNc1nnc(-c2cccnc2SCc2ccccc2)s1)Nc1nc(Cl)cc(Cl)n1` in this assay.
Solution: false (0)

Exercise: GET /call?item= CC(=O)OC1CC2C(C)(C)CCC[C@]2(C)C2=C1C(O)=C(C(C)C)C(=O)C2=O (stereo not given in full) returns the recorded outcome of this test.
Solution: true (1)

Exercise: Hey, what did the test say about COc1ccc(C2CC(c3cccs3)=NN2c2ccc(S(N)(=O)=O)cc2)cc1 (stereo not given) ?
Solution: false (0)

Exercise: Per the assay record, what outcome was assigned to `COc1cc(-c2ccc[nH]2)[nH]c1/C=C1\N=C(C)C(C(=O)NC(C)C)=C1C` ?
Solution: false (0)
